For each entry below, report its Difference value.
system: NCI-H292 lung cancer cells; assay: FDA drug screening, complete media vs cholesterol-free media with simvastatin (TABLE 2); type: cell-based, human; settings: complete media minus cholesterol-free media + simvastatin; […]
Structures can show the parent of a compound that is named as a salt.
Answers are plain numbers.

Consider the following illustrative entries.
Query string: Tell me the measured Difference of "CC1(C)CCC(C)(C)c2cc(NC(=O)c3ccc(C(=O)O)cc3)ccc21" , please.
Result string: 0.18

Query string: Any idea what Difference was measured for COc1cc2c3cc1Oc1c(OC)c(OC)cc4c1[C@@H](Cc1ccc(O)c(c1)Oc1ccc(cc1)C[C@@H]3N(C)CC2)N(C)CC4 [Berbamine (dihydrochloride)] ?
Result string: 0.75

Proceeding to the next compound to report its Difference.
Query string: Bench note: what Difference did "O=S(=O)([O-])CCSSCCS(=O)(=O)[O-].[Na+].[Na+]" show?
Result string: 0.34

====

system: NCI-H292 lung cancer cells; experiment: FDA drug screening, complete media vs cholesterol-free media without statin (TABLE 1); type: cell-based, human; details: complete vs cholesterol-free media; >0 enhanced anti-cancer activity, about 0 neutral, <0 antagonist
Where a name gives a salt, the structure may show the parent alone.
readout label: Difference

Query string: // query Difference value for entry CCOC(=O)C1=C(COCCN)NC(C)=C(C(=O)OC)C1c1ccccc1Cl (centres unmarked)
Result string: 0.64

Query string: Consider the compound "CCCCOc1ccc(CC(=O)NO)cc1" and give its measured Difference.
Result string: 0.11

Query string: For the compound shown here, "CC(C)(C)c1cc(NC(=O)Nc2ccc(-c3cn4c(n3)sc3cc(OCCN5CCOCC5)ccc34)cc2)no1" , give the reported Difference.
Result string: 0.10

Query string: // returns reported Difference for input "O=C(NCCO[N+](=O)[O-])c1cccnc1"
Result string: 0.53

Query string: Given the compound COc1cc(C(=O)NCc2ccc(OCCN(C)C)cc2)cc(OC)c1OC [Trimethobenzamide hydrochloride] , what is its reported Difference?
Result string: 0.08

Give Difference for all compounds that follow.
1. C#C[C@]1(O)CC[C@H]2[C@@H]3CCc4cc(O)ccc4[C@H]3CC[C@@]21C
2. CC(C)N(CCCCOCC(=O)NS(C)(=O)=O)c1cnc(-c2ccccc2)c(-c2ccccc2)n1
3. COc1nc2ccc(Br)cc2cc1[C@@H](c1ccccc1)[C@@](O)(CCN(C)C)c1cccc2ccccc12

Result string:
[0.52, 0.31, 0.86]

====

tested on: NCI-H292 lung cancer cells; assay: FDA drug screening, complete media vs cholesterol-free media without statin (TABLE 1); assay type: cell-based, human; conditions: NCI-H292 cells in complete media
Counter-ions that a name gives are not always drawn.
Class membership depends on Complete alone; the intervals are low end (below 0.9), middle (0.9 to below 1), high end (1 or more)

Illustrative cases are given below, each with its answer.
Query string: # classify by Complete band: CCCc1nn(C)c2c(=O)[nH]c(-c3cc(S(=O)(=O)N4CCN(C)CC4)ccc3OCC)nc12 [Sildenafil]
Result string: high end

Query string: The entry to classify is CC(=O)N[C@H]1[C@H]([C@H](O)[C@H](O)CO)OC(C(=O)O)=C[C@@H]1N=C(N)N [Zanamivir] ; which class holds it?
Result string: high end

Query string: Which category does the recorded Complete put OC(c1cc(C(F)(F)F)nc2c(C(F)(F)F)cccc12)C1CCCCN1 (stereo not drawn) [Mefloquine (hydrochloride)] in?
Result string: middle

---
Query string: Which band does CC(CCc1ccccc1)NC(C)C(O)c1ccc(O)cc1 (stereo not drawn) [Nylidrin (hydrochloride)] fall in?
Result string: middle

Query string: Category of CC(C)Cc1ccc([C@@H](C)C(=O)O)cc1 [(R)-(—)-Ibuprofen] :
Result string: low end

Query string: Field: class (Complete) — entry: Nc1cc(F)ccc1NC(=O)c1ccc(CNC(=O)/C=C/c2cccnc2)cc1 [Tucidinostat]
Result string: low end

Query string: Returns: class label. Input: CCN(C)C(=O)Oc1cccc([C@H](C)N(C)C)c1 [Rivastigmine]
Result string: high end

Query string: Tag the class for N[C@H]1CONC1=O [L-Cycloserine]
Result string: low end

Query string: Place this molecule in its band: CC(Oc1c(Cl)cccc1Cl)C1=NCCN1 (stereo not drawn) [Lofexidine (hydrochloride)]
Result string: middle

Query string: Quick check: band for CNNCc1ccc(C(=O)NC(C)C)cc1 [Procarbazine (Hydrochloride)]
Result string: high end

Query string: Band for CCCCOc1cc(C(=O)NCCN(CC)CC)c2ccccc2n1 [Dibucaine (hydrochloride)] ?
Result string: low end

Query string: Would you mind sorting COc1cc2c(cc1Cc1cccc(Cl)c1F)c(=O)c(C(=O)O)cn2[C@H](CO)C(C)C [Elvitegravir] into the appropriate category?
Result string: middle

Query string: Hello team, could you let me know which band the following molecule falls into: NCc1ccc(C(=O)O)cc1 [4-(Aminomethyl)benzoic acid]
Result string: high end

Query string: Band of Cc1cccc(Nc2ccccc2C(=O)O)c1C [Mefenamic acid] ?
Result string: high end

Query string: Looking at CCC(=O)O[C@@H](O[P@](=O)(CCCCc1ccccc1)CC(=O)N1C[C@H](C2CCCCC2)C[C@H]1C(=O)O)C(C)C [Fosinopril (sodium)] , which class would you pick?
Result string: high end

====

tested on: NCI-H292 lung cancer cells; assay: FDA drug screening, complete media vs cholesterol-free media with simvastatin (TABLE 2); format: cell-based, human; conditions: complete media minus cholesterol-free media + simvastatin; >0 enhanced anti-cancer activity, about 0 neutral, <0 antagonist
Where a name gives a salt, the structure may show the parent alone.
Note that class boundaries on Difference are bottom range = under 0.1, center range = from 0.1 up to 0.2, top range = 0.2 and over

Query string: State the class of the compound shown: CN(C/C=C/c1ccccc1)Cc1cccc2ccccc12 [Naftifine (hydrochloride)]
Result string: top range

Query string: Quick check: band for COC(=O)[C@H]1[C@H]2C[C@H]3c4[nH]c5ccccc5c4CCN3C[C@H]2CC[C@@H]1O [Rauwolscine (hydrochloride)]
Result string: bottom range

Query string: Band for O=C1c2c(O)ccc(O)c2C(=O)c2c(NCCNCCO)ccc(NCCNCCO)c21 [Mitoxantrone (dihydrochloride)] ?
Result string: bottom range

Further cases:
Query string: Looking at "COc1ccccc1N1CCN(CCCNc2cc(=O)n(C)c(=O)n2C)CC1" , which class would you pick?
Result string: center range

Query string: Bin? CNCCC(Oc1ccc(C(F)(F)F)cc1)c1ccccc1 (centres unmarked) [Fluoxetine (hydrochloride)]
Result string: center range

Query string: Please report the category associated with c1ccc2c(c1)Sc1ccccc1N2CC1CN2CCC1CC2 (centres unmarked) , nothing else.
Result string: center range

Query string: Tag the class for "Cc1cccc(C)c1N(CC(=O)Nc1ccc(-c2ncon2)cc1)C(=O)C1CCS(=O)(=O)CC1"
Result string: center range

Query string: Pick a category. Item: "CN1CC[C@@H](NC(=O)Nc2ccc(C#N)cc2)C[C@@H]1c1nc2ccccc2[nH]1"
Result string: center range

Query string: Would you mind sorting "Cc1nc(C(=O)NCC(=O)O)c(O)c2ccc(Oc3ccccc3)cc12" into the appropriate category?
Result string: center range

Query string: Which band does "OCCN(CCO)c1nc(N2CCCCC2)c2nc(N(CCO)CCO)nc(N3CCCCC3)c2n1" fall in?
Result string: center range

Query string: // bin(item) where item = "O=C(CCCN1CCC(O)(c2ccc(Cl)cc2)CC1)c1ccc(F)cc1"
Result string: bottom range

Query string: Into which category would you place CN1CCC(OC(c2ccccc2)c2ccccc2)CC1 [Diphenylpyraline (hydrochloride)] ?
Result string: top range

Query string: Exam item: assign COC(=O)[C@@H]1[C@H]2C[C@H]3c4[nH]c5ccccc5c4CCN3C[C@@H]2CC[C@@H]1O [Yohimbine (Hydrochloride)] to the correct category.
Result string: bottom range

Query string: Pick a category. Item: COc1cc2c(cc1OC)C(=O)C(CC1CCN(Cc3ccccc3)CC1)C2 (centres unmarked) [Donepezil]
Result string: top range

Query string: Which category does the recorded Difference put "CC(=O)[C@H]1CC[C@H]2[C@@H]3C=CC4=CC(=O)CC[C@@]4(C)[C@@H]3CC[C@]12C" in?
Result string: center range

Query string: Kindly identify the class of "CCC(=O)NCC[C@@H]1CCc2ccc3c(c21)CCO3" .
Result string: center range

Query string: Sort C=CCOc1ccccc1OCC(O)CNC(C)C (centres unmarked) [Oxprenolol (hydrochloride)] into one of the categories.
Result string: bottom range

Query string: Field: class (Difference) — entry: "COC[C@H]1C[C@@H](c2nc(-c3ccc4c(c3)COc3cc5c(ccc6nc([C@@H]7CC[C@H](C)N7C(=O)[C@@H](NC(=O)OC)C(C)C)[nH]c65)cc3-4)c[nH]2)N(C(=O)[C@H](NC(=O)OC)c2ccccc2)C1"
Result string: bottom range

Query string: # classify by Difference band: Clc1ccccc1CN1CCc2sccc2C1 [Ticlopidine (hydrochloride)]
Result string: bottom range

Query string: Determine which band this compound sits in: OCc1cc(C(O)CNCCCCCCOCCCCc2ccccc2)ccc1O (centres unmarked) [Salmeterol (xinafoate)]
Result string: top range
